Target: Human recombinant GST-PI3Kγ (Homo sapiens, UniProt P48736)
Sequence (P48736 whole entry): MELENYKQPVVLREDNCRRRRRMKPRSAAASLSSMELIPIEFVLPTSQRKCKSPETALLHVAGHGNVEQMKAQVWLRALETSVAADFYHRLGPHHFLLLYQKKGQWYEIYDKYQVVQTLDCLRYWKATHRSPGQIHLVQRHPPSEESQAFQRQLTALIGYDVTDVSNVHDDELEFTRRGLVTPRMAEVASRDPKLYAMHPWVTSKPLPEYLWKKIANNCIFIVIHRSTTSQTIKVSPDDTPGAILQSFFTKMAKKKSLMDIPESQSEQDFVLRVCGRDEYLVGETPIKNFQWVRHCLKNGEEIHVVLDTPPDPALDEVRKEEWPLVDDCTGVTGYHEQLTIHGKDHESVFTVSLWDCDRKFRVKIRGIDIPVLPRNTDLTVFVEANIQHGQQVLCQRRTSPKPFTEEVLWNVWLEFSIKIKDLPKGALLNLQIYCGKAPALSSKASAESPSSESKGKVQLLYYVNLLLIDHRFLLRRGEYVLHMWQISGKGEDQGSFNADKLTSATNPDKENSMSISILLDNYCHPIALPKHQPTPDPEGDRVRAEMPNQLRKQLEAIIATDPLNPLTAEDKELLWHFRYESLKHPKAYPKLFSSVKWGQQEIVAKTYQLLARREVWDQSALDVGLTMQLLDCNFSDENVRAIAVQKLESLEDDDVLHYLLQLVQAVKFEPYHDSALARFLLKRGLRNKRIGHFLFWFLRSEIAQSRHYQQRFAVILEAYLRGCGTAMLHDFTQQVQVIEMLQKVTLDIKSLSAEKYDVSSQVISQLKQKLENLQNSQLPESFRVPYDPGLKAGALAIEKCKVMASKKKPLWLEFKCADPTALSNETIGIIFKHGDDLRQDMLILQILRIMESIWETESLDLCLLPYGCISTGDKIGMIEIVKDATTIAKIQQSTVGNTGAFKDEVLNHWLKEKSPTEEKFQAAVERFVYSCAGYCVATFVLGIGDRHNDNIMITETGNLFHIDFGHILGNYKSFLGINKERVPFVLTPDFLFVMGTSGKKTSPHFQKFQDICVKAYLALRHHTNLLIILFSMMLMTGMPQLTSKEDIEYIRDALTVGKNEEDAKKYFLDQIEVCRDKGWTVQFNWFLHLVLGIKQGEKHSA
Assay: High Throughput PI3K Lipid Kinase Assay (SPA, neomycin-coated beads)

query-smiles: CO/N=C1\NC(=O)/C(=C/c2ccc3c(c2)OCO3)S1
IC50: < 1000 nM

query-smiles: CN=C1NC(=O)/C(=C/c2ccc3ncnc(N(C)C)c3c2)S1
IC50: < 1000 nM

query-smiles: N#CN=C1NC(=O)/C(=C/c2ccc3nccnc3c2)S1
IC50: < 1000 nM

query-smiles: O=C1NC(=NCc2ccccc2)S/C1=C\c1ccc2c(c1)OCO2
IC50: < 1500 nM

query-smiles: COC(=O)c1sccc1S(=O)(=O)N=C1NC(=O)/C(=C/c2ccc3ncccc3c2)S1
IC50: < 1000 nM
